# Test system: Nakaseomyces glabratus
# experimentalDetails: Antifungal activity against Candida glabrata ATCC 90030 assessed as reduction in microbial growth
# Format: functional
metric: MIC90 (µg/mL)
Please give a number only; it is taken to be in µg/mL.

The reported value for `O=[N+]([O-])c1cccc2nc3ccccc3c(NCCO)c12` in terms of MIC90 is 16

The compound listed as `Cc1ccc(N)c2c(NCCO)c3ccccc3nc12` shows MIC90 equal to 64

Lab book: MIC90 of `Cc1ccc([N+](=O)[O-])c2c(NCCOC(=O)[C@@H](N)CCCCN)c3ccccc3nc12` noted as 32

The measured MIC90 associated with `O=[N+]([O-])c1cccc2nc3ccccc3c(NCCNCCNCCNc3c4ccccc4nc4cccc([N+](=O)[O-])c34)c12` reads 32

====

# Tested on: Nakaseomyces glabratus
# experimentalDetails: Antifungal activity against Candida glabrata ATCC 90030 assessed as reduction in microbial growth
# Format: functional
metric: MIC90

Summary line: C[C@@H]1[C@H](O)[C@@H](C)/C=C/C=C/C=C/C=C/C=C/C=C/C=C/[C@H](O[C@@H]2O[C@H](C)[C@@H](O)[C@H](N)[C@@H]2O)C[C@@H]2O[C@](O)(C[C@@H](O)C[C@@H](O)[C@H](O)CC[C@@H](O)C[C@@H](O)CC(=O)O[C@H]1C)C[C@H](O)[C@H]2C(=O)O [AMPHOTERICIN B] , Nakaseomyces glabratus, reported MIC90 = 1 µg/mL

Entry `CN(CCCNc1c2ccccc2nc2cccc([N+](=O)[O-])c12)CCCNc1c2ccccc2nc2cccc([N+](=O)[O-])c12` , Nakaseomyces glabratus data, MIC90 value: > 16 µg/mL

Here `Nc1cccc2nc3ccccc3c(NCCO)c12` was tested on Nakaseomyces glabratus, and its MIC90 came to > 64 µg/mL

// returns MIC90 for `Cc1ccc([N+](=O)[O-])c2c(NCCO)c3ccccc3nc12` with Nakaseomyces glabratus; value = 8 µg/mL

The molecule `NCCCC[C@H](N)C(=O)NCCCNc1c2ccccc2nc2cccc([N+](=O)[O-])c12` , when measured on Nakaseomyces glabratus, yielded MIC90 of 32 µg/mL

Summary: `Cc1ccc([N+](=O)[O-])c2c(NCCCNC(=O)[C@@H](N)CCCCN)c3ccccc3nc12` , Nakaseomyces glabratus, MIC90 = > 64 µg/mL

MIC90 for Nakaseomyces glabratus with input `NCCCC[C@H](N)C(=O)OCCNc1c2ccccc2nc2cccc([N+](=O)[O-])c12` equals 16 µg/mL

====

# System: Candida parapsilosis
# experimentalDetails: Fungicidal activity against Candida parapsilosis DSM 5784
# Assay type: functional
# particulars: Lodderomyces parapsilosis
metric: MFC (µg/mL)
Expressed in µg/mL, but write only the number.

Per the records, this compound ( `O=[N+]([O-])c1cccc2nc3ccccc3c(NCCO)c12` ) has MFC equal to 64

// sample `C[C@@H]1[C@H](O)[C@@H](C)/C=C/C=C/C=C/C=C/C=C/C=C/C=C/[C@H](O[C@@H]2O[C@H](C)[C@@H](O)[C@H](N)[C@@H]2O)C[C@@H]2O[C@](O)(C[C@@H](O)C[C@@H](O)[C@H](O)CC[C@@H](O)C[C@@H](O)CC(=O)O[C@H]1C)C[C@H](O)[C@H]2C(=O)O` , its MFC was 2

// `NCCCC[C@H](N)C(=O)OCCNc1c2ccccc2nc2cccc([N+](=O)[O-])c12` : MFC value = 128
